Observed pIC50, system UniProt:P9WIP3.
Sequence (P9WIP3 whole entry): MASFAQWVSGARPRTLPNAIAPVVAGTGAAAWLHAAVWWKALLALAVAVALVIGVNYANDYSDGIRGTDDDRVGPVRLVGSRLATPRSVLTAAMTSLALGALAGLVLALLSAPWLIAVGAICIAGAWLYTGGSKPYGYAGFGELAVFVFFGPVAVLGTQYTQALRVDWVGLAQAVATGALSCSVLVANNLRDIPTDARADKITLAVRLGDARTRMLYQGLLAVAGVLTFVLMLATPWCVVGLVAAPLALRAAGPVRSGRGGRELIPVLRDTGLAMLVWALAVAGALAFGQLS
Please treat pIC50 as minus the base-10 logarithm of the molar concentration.

Lookup: pIC50 / UniProt:P9WIP3 / CCCCCCC[C@@H](O)c1cccc(CN2CCC(COc3ccc(C(=NOC)c4ccc(Cl)cc4)c(Cl)c3)CC2)c1 [(R)-20]
4.82

Lookup: pIC50 / UniProt:P9WIP3 / CCCCCCC[C@H](O)c1cccc(CN2CCC(COc3cccc(C(=O)c4ccc(Cl)cc4)c3)CC2)c1 [(S)-3]
4.70

Lookup: pIC50 / UniProt:P9WIP3 / CCCCCCC[C@H](O)c1cccc(CN2CCC(COc3ccc(C(=NOC)c4ccc(Cl)cc4)c(Cl)c3)CC2)c1 [(S)-20]
4.70

Lookup: pIC50 / UniProt:P9WIP3 / CCCCCCC[C@@H](O)c1cccc(CN2CCC(COc3cccc(C(=NOC)c4ccc(Cl)cc4)c3)CC2)c1 [(R)-15]
4.82

Lookup: pIC50 / UniProt:P9WIP3 / CCCCCC[C@H](CN1CCC(COc2cccc(C(=NOC)c3ccc(Cl)cc3)c2)CC1)OC(N)=O [(R)-13]
5.92
